test system: SF-295; assay: NCI tumour cell line growth inhibition, 48 h
Calls of active or inactive are those of the source. No stated cut-off is given here; in the data, active = GI50 up to about 1.1 µM and inactive = higher.
Outcome field: choose from active, inactive

Field: example entries. Status: answers known.
| COMPOUND | ASSIGNED_CLASS |
| --- | --- |
| Cc1c(C)c(S(=O)(=O)N(CCCN)OCCCN)c(C)c2c1OC(C)(C)C2 | inactive |
| C[Si](C)(c1ccccc1)C1CC(=O)CC(=O)C1 | inactive |
| C/C(=N\NC(=O)c1ccncc1)c1cccc(F)c1 | inactive |
| CC(=O)O[C@H]1CCc2c(cc(N)c3c2C(=O)C[C@]2(C)C([C@H](C)CCCC(C)C)CCC32C)C1(C)C (stereo partly specified) | inactive |
| c1ccc2c(c1)Sc1nccc3ccnc-2c13 | inactive |

Query: recorded result category for Cc1ccc2c(n1)NC(=O)C(Cc1ccccc1)(N=[N+]=[N-])C2=O (stereo unspecified) in this test
inactive

Per the assay record, what outcome was assigned to C[C@]12CCNC(=O)C=C1CC[C@@H]1C2CC[C@@]2(C)C1CC[C@@H]2OC(=O)COc1ccc(N(CCCl)CCCl)cc1 (stereo partly specified) ?
inactive

Answer briefly: the call reported for `CS(=O)(=O)OCCN(CCOS(C)(=O)=O)c1ccc(/C=N/c2cccc(Cl)c2)cc1` in this assay.
inactive

Which result was noted for this compound in the test: `COCn1c2ccc(OC(C)=O)cc2c2c(=O)oc(N(C)C)nc21`
inactive

Assay outcome for COc1cccc(CC2Cc3ccccc3CC(=O)N2)c1 (stereo unspecified) : what was it?
inactive
